This collection of values is drawn from patent US20220403048A1.

- tgt: T1, biotinylated recombinant human trimeric ARG2 enzyme (Avi-huARG2-His10) (human, UniProt P78540 23-354, biotinylated)
- T1 construct: also called avi-Arg2-His10; bio-ARG2
- T1 chain: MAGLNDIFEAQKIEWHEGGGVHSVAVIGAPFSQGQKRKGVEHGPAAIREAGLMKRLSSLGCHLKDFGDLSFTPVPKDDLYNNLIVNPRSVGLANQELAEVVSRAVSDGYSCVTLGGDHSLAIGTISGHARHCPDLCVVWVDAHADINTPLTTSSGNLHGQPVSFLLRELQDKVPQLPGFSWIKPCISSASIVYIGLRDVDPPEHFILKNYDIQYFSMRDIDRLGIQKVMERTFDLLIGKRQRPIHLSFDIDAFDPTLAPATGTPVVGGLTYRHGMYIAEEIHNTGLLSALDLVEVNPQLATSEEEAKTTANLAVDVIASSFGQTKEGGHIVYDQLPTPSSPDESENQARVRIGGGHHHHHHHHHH
- assay.info: BLI (OctetRED), biotinylated ARG2 on streptavidin, Fab as analyte
Item-by-item account of koff
# unit: s⁻¹ | format: bare number

Example entries and their recorded answers appear below.
binder	koff / s⁻¹
C0021097 Fab (Fab, V domains shown, Human Fab) VH: EVQLLESGGGLVQPGGSLRLSCAASGFTFSSYAMSWVRQAPGKGLEWVSAISYHPGSTYYADSVKGRFTISRDNSKNTLYLQMNSLRAEDTAVYYCARLRADLGLYMDLWGRGTLVTVSS VL: QSVLTQPPSVSAAPGQKVTISCSGSSSNIGNHYVSWYQQLPGTAPKLLIYNTFARPSGIPDRFSGSKSGTSATLGITGLQTGDEADYYCGTWDSSLSALVFGGGTKLTVL	0.00146
C0021139 Fab (Fab, V domains shown, Human Fab; also called LO C0021139 Fab) VH: EVQLLESGGGLVQPGGSLRLSCAASGFTFQYDYQVWVRQAPGKGLEWVSAISGSGGSTYYADSVKGRFTISRDNSKNTLYLQMNSLRAEDTAVYYCARLRADLGLYMDLWGRGTLVTVSS VL: QSVLTQPPSVSAAPGQKVTISCSGSSSNIGNHYVSWYQQLPGTAPKLLIYDNSERTSGIPDRFSGSKSGTSATLGITGLQTGDEADYYCGTWDELTSNLVFGGGTKLTVL	0.000871

In: Need koff, item C0021065 Fab (Fab, V domains shown, Human Fab) VH: EVQLLESGGGLVQPGGSLRLSCAASGFTFSSYAMSWVRQAPGKGPEWVSAISGFSPYYADSVKGRFTISRDNSRNTLYLQMNSLRAEDTAVYYCARLRADLGLYMDLWGRGTLVTVSS VL: QSVLTQPPSVSAAPGQKVTISCSGSSSNIGNHYVSWYQQLPGTAPKLLIYDTDHMASGIPDRFSGSKSGTSATLGITGLQTGDEADYYCGTWDSSLSALVFGGGTKLTVL
Out: 0.000665
